Test system: RXF 393
Experiment: NCI tumour cell line growth inhibition, 48 h
Activity calls are given as the source filed them. Rule as the data show it: active = GI50 up to about 1.1 µM and inactive = higher.
Would you kindly list GI50 for each of these compounds?

Which value of GI50 has been reported for N#Cc1nc(-c2ccccn2)c(-c2ccccn2)nc1C#N in the records?
3.58 µM (inactive)

Entry Cc1ccc(S(=O)(=O)c2ccc(C)cc2[N+](=O)[O-])c([N+](=O)[O-])c1 has what GI50?
> 100 µM (inactive)

Query (compound): CC1(C)CC(O)C(C)(C)[C@@H](O)C1 (stereo partly specified) ; field requested: GI50
28.7 µM (inactive)

For the compound O=Nc1c(-c2c(O)[nH]c3ccccc23)[nH]c2ccccc12 , what GI50 is on record?
1.93 µM (inactive)

Given the compound COc1ccc(-c2ccc(C(=O)C=P(c3ccccc3)(c3ccccc3)c3ccccc3)cc2)cc1 , what is its reported GI50?
13.2 µM (inactive)

Suppose we examine the compound CC1C(C#N)(C#N)C(C#N)=C(N)C1(Cl)[N+](=O)[O-] (stereo unspecified) ; what GI50 value has been reported?
4.33 µM (inactive)

If you can, please state the reported GI50 value of O=C(/C=C/c1ccccc1)c1cc(CN2CCOCC2)c(O)c(CN2CCOCC2)c1 .
14.1 µM (inactive)

Need GI50 of Cc1c2c(n3c(nc4ccccc43)c1C#N)N(c1ccc(Cl)cc1)CC2 , thanks.
> 100 µM (inactive)

Give the measured GI50 of O=C(O)Cc1ccc2c(c1)/C(=C1/Nc3ccccc3C1=O)C(=O)N2 .
17.2 µM (inactive)

Item under review: Nc1ccc(S(=O)(=O)NCc2nccs2)cc1 . Reported GI50?
29.9 µM (inactive)

// returns reported GI50 for input CCOC(=O)C(=O)C(=O)NN(C)C1=NCCN1
> 100 µM (inactive)
